# maps each entry to its bioavailability
experiment: Oral bioavailability in overnight fasted ICR mouse at 10 mg/kg measured upto 24 hrs by UPLC-MS/MS analysis; type: ADME, organism-based; conditions: in vivo

### Prompt Quick check: bioavailability of CC(C)NC[C@@H](C(=O)N1CCN(c2ncnc3c2[C@H](C)OC(=O)N3)[C@H]2C[C@H]21)c1ccc(Cl)cc1 ?
### Response 26.5%

### Prompt Consider next the molecule CC(C)NC[C@@H](C(=O)N1CCN(c2ncnc3c2[C@H](C)CC(=O)N3)[C@H]2C[C@H]21)c1ccc(Cl)cc1 in the same way.
### Response 29.7%

Now for the molecule whose bioavailability we want.
### Prompt Name the reported bioavailability value associated with the molecule CC(C)NC[C@@H](C(=O)N1CCN(c2ncnc3c2[C@H](C)CC(=O)N3)CC1)c1ccc(Cl)cc1
### Response 26.6%

====

assay: Metabolic stability in CD-1 mouse liver microsomes assessed as half life at 1 uM measured after 60 mins by LC-MS/MS analysis; format: ADME, Microsome
attribute measured: half-life at 1 µM

### Prompt Could you tell me which half-life at 1 µM is on file for CC(C)NC[C@@H](C(=O)N1CCN(c2ncnc3c2[C@H](C)CC(=O)N3)[C@H]2C[C@H]21)c1ccc(Cl)cc1 ?
### Response > 6.45 h

====

assay: Metabolic stability in Sprague-Dawley rat liver microsomes assessed as half life at 1 uM measured after 60 mins by LC-MS/MS analysis; type: ADME, Microsome
attribute measured: half-life at 1 µM

### Prompt Name the recorded half-life at 1 µM for CC(C)NC[C@@H](C(=O)N1CCN(c2ncnc3c2[C@H](C)CC(=O)N3)[C@H]2C[C@H]21)c1ccc(Cl)cc1 .
### Response > 3.82 h

====

assay: AUC (0 to t) in NCG mouse xenografted with human LNCaP cells at 12.5 mg/kg administered daily once for 18 to 21 days and measured upto 10 hrs post last dose by LC-MS/MS analysis; type: ADME, organism-based; conditions: in vivo
attribute measured: AUC(0-t) (ng·h/mL)
Number in ng·h/mL, nothing else.

### Prompt Returns the measured AUC(0-t) for the input compound. Input: CC(C)NC[C@@H](C(=O)N1CCN(c2ncnc3c2[C@H](C)CC(=O)N3)[C@H]2C[C@H]21)c1ccc(Cl)cc1
### Response 7030

====

experiment: AUC (0 to t) in crab-eating monkey at 3 mg/kg, iv measured upto 24 hrs by UPLC-MS/MS analysis; format: ADME, organism-based, Macaca fascicularis; design: dose 3 mg/kg, time < 24 hrs, route iv; settings: cynomolgus monkey, in vivo
attribute measured: AUC(0-t) at 24 h (ng·h/mL)
Numeric only. Scale: ng·h/mL

### Prompt What value of AUC(0-t) at 24 h has been recorded for this entry: CC(C)NC[C@@H](C(=O)N1CCN(c2ncnc3c2[C@H](C)CC(=O)N3)[C@H]2C[C@H]21)c1ccc(Cl)cc1
### Response 1780

====

assay: Cmax in crab-eating monkey at 3 mg/kg, iv measured upto 24 hrs by UPLC-MS/MS analysis; type: ADME, organism-based, Macaca fascicularis; parameters: dose 3 mg/kg, time < 24 hrs, route iv; details: cynomolgus monkey, in vivo
attribute measured: Cmax (ng/mL)
Value expressed in ng/mL; do not type the unit.

### Prompt May I ask what Cmax has been recorded for CC(C)NC[C@@H](C(=O)N1CCN(c2ncnc3c2[C@H](C)CC(=O)N3)[C@H]2C[C@H]21)c1ccc(Cl)cc1 ?
### Response 702

====

biological target: Cytochrome P450 2C9 (Homo sapiens)
Sequence (P11712 whole entry): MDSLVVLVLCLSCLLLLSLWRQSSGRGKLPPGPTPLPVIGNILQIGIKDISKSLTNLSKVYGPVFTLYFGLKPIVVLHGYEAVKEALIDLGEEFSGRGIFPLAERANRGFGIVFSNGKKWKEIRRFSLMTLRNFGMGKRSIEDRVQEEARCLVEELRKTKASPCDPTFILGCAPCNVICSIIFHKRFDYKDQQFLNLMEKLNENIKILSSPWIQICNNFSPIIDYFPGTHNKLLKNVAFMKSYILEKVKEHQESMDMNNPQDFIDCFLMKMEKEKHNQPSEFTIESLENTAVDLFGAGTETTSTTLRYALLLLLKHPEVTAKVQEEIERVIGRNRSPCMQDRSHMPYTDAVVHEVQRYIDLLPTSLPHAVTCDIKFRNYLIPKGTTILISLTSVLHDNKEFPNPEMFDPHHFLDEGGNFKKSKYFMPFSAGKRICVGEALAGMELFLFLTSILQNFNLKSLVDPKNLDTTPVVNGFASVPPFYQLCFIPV
pIC50: −log10 of the molar value.
attribute measured: pIC50

### Prompt Tell me the measured pIC50 of COC1CCC(NC[C@@H](C(=O)N2CCN(c3ncnc4c3[C@H](C)CC(=O)N4)[C@H]3C[C@H]32)c2ccc(Cl)cc2)CC1 (some centres undefined) , please.
### Response 4.52

### Prompt Please do the same for C[C@@H]1CC(=O)Nc2ncnc(N3CCN(C(=O)[C@H](CN)c4ccc(Cl)cc4)[C@@H]4C[C@@H]43)c21 as well.
### Response < 4.52

### Prompt Now consider CC(C)NC[C@@H](C(=O)N1CCN(c2ncnc3c2[C@H](C)CC(=O)N3)CC1)c1ccc(Cl)cc1 .
### Response < 4.30

Now examine the next entry.
### Prompt Please report the recorded pIC50 for C[C@@H]1CC(=O)Nc2ncnc(N3CCN(C(=O)[C@H](CNC4C5COCC54)c4ccc(Cl)cc4)[C@@H]4C[C@@H]43)c21 (some centres undefined) .
### Response < 4.52

====

assay: Tmax in NCG mouse xenografted with human LNCaP cells at 25 mg/kg administered once daily for 18 to 21 days and measured upto 10 hrs post last dose by LC-MS/MS analysis; type: ADME, organism-based; conditions: in vivo, time 18-21 day
attribute measured: Tmax (h)
The answer is to be given in h; state only the numeric part.

### Prompt Which value of Tmax has been reported for CC(C)NC[C@@H](C(=O)N1CCN(c2ncnc3c2[C@H](C)CC(=O)N3)[C@H]2C[C@H]21)c1ccc(Cl)cc1 in the records?
### Response 4

====

# Lookup of reported IC50 keyed by entry
biological target: RAC-alpha serine/threonine-protein kinase (Homo sapiens); assay: Inhibition of recombinant AKT1 (104 to 480 end residues) (unknown origin) catalytic domain expressed in Sf21 cells using peptide substrate incubated for 1 hr in presence of ATP by caliper off-chip mobility shift assay
Sequence (P31749 whole entry, the tested form may be a part): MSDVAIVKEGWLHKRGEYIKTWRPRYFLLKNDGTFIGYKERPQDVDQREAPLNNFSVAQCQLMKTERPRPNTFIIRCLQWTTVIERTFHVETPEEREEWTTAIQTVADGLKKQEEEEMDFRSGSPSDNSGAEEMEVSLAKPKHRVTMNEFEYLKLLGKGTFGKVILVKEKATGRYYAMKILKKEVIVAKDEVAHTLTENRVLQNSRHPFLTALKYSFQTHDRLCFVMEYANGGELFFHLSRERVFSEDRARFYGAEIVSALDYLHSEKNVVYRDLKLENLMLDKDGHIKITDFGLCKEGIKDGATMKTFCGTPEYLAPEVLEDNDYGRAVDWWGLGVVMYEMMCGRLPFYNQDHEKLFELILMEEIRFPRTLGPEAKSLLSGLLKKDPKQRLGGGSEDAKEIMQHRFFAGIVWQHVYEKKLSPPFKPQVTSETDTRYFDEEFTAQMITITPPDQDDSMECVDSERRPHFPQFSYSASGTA

### Prompt Give the reported IC50 for CC(C)NC[C@@H](C(=O)N1CCC(c2ncnc3c2[C@H](C)CC(=O)N3)CC1)c1ccc(Cl)cc1 (system: RAC-alpha serine/threonine-protein kinase (Homo sapiens)).
### Response > 1 µM

Further cases:
### Prompt Lookup: IC50 / RAC-alpha serine/threonine-protein kinase (Homo sapiens) / CC(C)NC[C@@H](C(=O)N1CC2(C1)CN(c1ncnc3c1[C@H](C)CC(=O)N3)C2)c1ccc(Cl)cc1
### Response > 1 µM

### Prompt Queued: CC(C)NC[C@@H](C(=O)N1CCN(c2ncnc3c2[C@@H](C)CC(=O)N3)CC1)c1ccc(Cl)cc1
### Response > 1 µM

### Prompt Try the compound CC(C)NC[C@@H](C(=O)N1CCN(c2ncnc3c2[C@H](C)CC(=O)N3)C[C@@H]1C)c1ccc(Cl)cc1
### Response 0.22 µM

### Prompt Another compound: CC(C)NC[C@@H](C(=O)N1CCN(c2cc[nH]c(=O)c2)CC1)c1ccc(Cl)cc1
### Response > 1 µM

### Prompt Would you mind doing C[C@@H]1CC(=O)Nc2ncnc(N3CCN(C(=O)[C@H](CNC4C5COCC54)c4ccc(Cl)cc4)[C@@H]4C[C@@H]43)c21 (some centres not stated) as well?
### Response 0.0041 µM

### Prompt Field entry: CC(C)NC[C@@H](C(=O)N1CCN(c2ncnc3c2[C@H](C)CC(=O)N3)CC1)c1ccc(Cl)cc1
### Response 0.0016 µM
